Molecular target: D(4) dopamine receptor (Homo sapiens, UniProt P21917)
Sequence (P21917 whole entry): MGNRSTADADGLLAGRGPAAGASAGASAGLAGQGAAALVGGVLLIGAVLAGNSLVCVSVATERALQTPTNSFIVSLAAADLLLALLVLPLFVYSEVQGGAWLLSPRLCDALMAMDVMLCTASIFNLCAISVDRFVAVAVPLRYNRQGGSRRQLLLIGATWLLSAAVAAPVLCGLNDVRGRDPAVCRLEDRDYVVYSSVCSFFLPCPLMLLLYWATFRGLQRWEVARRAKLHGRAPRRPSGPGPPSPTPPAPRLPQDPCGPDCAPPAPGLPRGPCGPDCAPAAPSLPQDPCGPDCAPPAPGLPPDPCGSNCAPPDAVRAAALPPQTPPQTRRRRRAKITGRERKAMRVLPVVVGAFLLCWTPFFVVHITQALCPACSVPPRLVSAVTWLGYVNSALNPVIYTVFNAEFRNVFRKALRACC
Assay: DRUGMATRIX: Dopamine D4.2 radioligand binding (ligand: [3H] Spiperone)
Assay type: cell membranes, CHO-K1, Membrane
Settings: Not Active = under 50% inhibition at 10 µM; read-out: IC50

structure smiles string | unit | IC50
CCN(CC)C(=S)SSC(=S)N(CC)CC | µM | 3.15

----------
Biological target: 5-hydroxytryptamine receptor 1A (Rattus norvegicus); further: in other assays of this panel Not Active means under 50% inhibition at 10 µM
Sequence (P19327 whole entry): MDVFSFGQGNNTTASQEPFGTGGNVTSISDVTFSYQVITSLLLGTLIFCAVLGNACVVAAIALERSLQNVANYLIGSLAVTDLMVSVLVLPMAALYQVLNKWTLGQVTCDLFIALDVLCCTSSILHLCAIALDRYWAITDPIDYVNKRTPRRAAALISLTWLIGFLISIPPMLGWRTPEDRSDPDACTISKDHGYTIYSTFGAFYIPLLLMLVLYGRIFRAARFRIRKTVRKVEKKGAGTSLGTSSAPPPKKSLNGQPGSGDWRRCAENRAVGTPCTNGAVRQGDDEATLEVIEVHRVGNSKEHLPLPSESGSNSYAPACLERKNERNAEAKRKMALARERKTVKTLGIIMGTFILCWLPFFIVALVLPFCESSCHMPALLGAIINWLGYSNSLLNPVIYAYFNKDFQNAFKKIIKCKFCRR
Format: cell membranes, CHO-K1, Membrane
Settings: read-out: IC50
pIC50: −log10 of the molar value.
Decide using pIC50: a value greater than or equal to 6 is True, a smaller one is False.

compound | tgt | answer label
COc1ccccc1OCCNCC(O)COc1cccc2[nH]c3ccccc3c12 (configuration not stated) | 5-hydroxytryptamine receptor 1A (Rattus norvegicus) | True
CC(C)(C)NC[C@H](O)COc1cccc2c1CCCC2=O | 5-hydroxytryptamine receptor 1A (Rattus norvegicus) | False
CN1C[C@H](CNC(=O)OCc2ccccc2)C[C@@H]2c3cccc4c3c(cn4C)C[C@H]21 | 5-hydroxytryptamine receptor 1A (Rattus norvegicus) | True
Cc1cc(C(C)(C)C)c(O)c(C)c1CC1=NCCN1 | 5-hydroxytryptamine receptor 1A (Rattus norvegicus) | True
CC(CN1c2ccccc2Sc2ccccc21)N(C)C (configuration not stated) | 5-hydroxytryptamine receptor 1A (Rattus norvegicus) | False

// provenance: ChEMBL document CHEMBL1909046
